Target: Mu-type opioid receptor (Homo sapiens, UniProt P35372)
Sequence (P35372 whole entry): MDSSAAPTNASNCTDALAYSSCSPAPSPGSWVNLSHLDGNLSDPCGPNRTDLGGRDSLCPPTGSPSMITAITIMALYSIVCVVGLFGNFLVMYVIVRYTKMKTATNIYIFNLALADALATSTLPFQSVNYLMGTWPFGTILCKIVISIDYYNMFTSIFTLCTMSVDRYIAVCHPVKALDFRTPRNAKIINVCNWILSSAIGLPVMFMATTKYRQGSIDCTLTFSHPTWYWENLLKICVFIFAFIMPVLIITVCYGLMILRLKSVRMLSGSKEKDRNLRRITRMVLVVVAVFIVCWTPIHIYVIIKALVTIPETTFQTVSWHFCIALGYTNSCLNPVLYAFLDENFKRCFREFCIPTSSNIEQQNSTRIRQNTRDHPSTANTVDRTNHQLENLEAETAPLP
Assay: Agonist activity at mu opioid receptor expressed in CHO-hg cells by [35S]-GTPgammaS binding assay
pEC50: −log10 of the molar value.
Returns one of met or not met; met when pEC50 is >= 8.

smi=Cc1cc(O)cc(C)c1C[C@H](N)C(=O)N1CCCC[C@H]1c1nc(-c2ccccc2)c[nH]1 subject_of_test="Mu-type opioid receptor (Homo sapiens, UniProt P35372)" qualitative_label=met
smi=Cc1cc(C(N)=O)cc(C)c1C[C@H](N)C(=O)N1Cc2ccccc2C[C@H]1c1nc(-c2ccccc2)c[nH]1 subject_of_test="Mu-type opioid receptor (Homo sapiens, UniProt P35372)" qualitative_label="not met"
smi=Cc1cc(O)cc(C)c1C[C@H](N)C(=O)N1Cc2ccccc2C[C@H]1c1nc(-c2ccccc2)c[nH]1 subject_of_test="Mu-type opioid receptor (Homo sapiens, UniProt P35372)" qualitative_label="not met"
smi=N[C@@H](Cc1ccc(O)cc1)C(=O)N1Cc2ccccc2C[C@H]1c1nc(-c2ccccc2)c[nH]1 subject_of_test="Mu-type opioid receptor (Homo sapiens, UniProt P35372)" qualitative_label="not met"
